Tested on: Pseudomonas aeruginosa
measurement.notes: Potentiation of ceftazidime-induced antibacterial activity against carbapenem-resistant Pseudomonas aeruginosa PAO200 harboring mexAB-oprM efflux deficient mutant assessed as ceftazidime MIC at 8 uM by checkerboard assay (reference value: 1 ug/ml)
Assay type: functional
This listing pairs molecules with measured MIC.

- molecule.smiles: "Cl.Cl.Cl.Cl.Cl.Cl.NC[C@H]1O[C@H](O[C@H]2[C@H](OCCCCCCCCCCCCN3CCN(c4cc5c(cc4F)c(=O)c(C(=O)O)cn5C4CC4)CC3)[C@@H](O[C@H]3O[C@H](CO)[C@@H](O)[C@H](N)[C@H]3O)[C@H](N)C[C@@H]2N)[C@H](N)C[C@@H]1O"
  system.under.test: "Pseudomonas aeruginosa"
  unit.string: "µg/mL"
  MIC: 0.06
- molecule.smiles: "NC[C@H]1O[C@H](O[C@H]2[C@H](OCCCCCCCCN3CCCNCCNCCCNCC3)[C@@H](O)[C@H](N)C[C@@H]2N)[C@H](N)C[C@@H]1O.O=C(O)C(F)(F)F.O=C(O)C(F)(F)F.O=C(O)C(F)(F)F.O=C(O)C(F)(F)F.O=C(O)C(F)(F)F.O=C(O)C(F)(F)F.O=C(O)C(F)(F)F.O=C(O)C(F)(F)F"
  system.under.test: "Pseudomonas aeruginosa"
  unit.string: "µg/mL"
  MIC: 0.13

Measured values drawn from ChEMBL document CHEMBL4665836 for this set.
